Taken from paper PMC8058351.

target: AMCase (Homo sapiens); construct: the catalytic domains of OfChtI from Ostrinia furnacalis (O. furnacalis), human HsCht and acidic mammalian chitinase (AMCase); assay: Tryptophan fluorescence quenching spectroscopy
Sequence (Q9BZP6 22-390 limits assumed): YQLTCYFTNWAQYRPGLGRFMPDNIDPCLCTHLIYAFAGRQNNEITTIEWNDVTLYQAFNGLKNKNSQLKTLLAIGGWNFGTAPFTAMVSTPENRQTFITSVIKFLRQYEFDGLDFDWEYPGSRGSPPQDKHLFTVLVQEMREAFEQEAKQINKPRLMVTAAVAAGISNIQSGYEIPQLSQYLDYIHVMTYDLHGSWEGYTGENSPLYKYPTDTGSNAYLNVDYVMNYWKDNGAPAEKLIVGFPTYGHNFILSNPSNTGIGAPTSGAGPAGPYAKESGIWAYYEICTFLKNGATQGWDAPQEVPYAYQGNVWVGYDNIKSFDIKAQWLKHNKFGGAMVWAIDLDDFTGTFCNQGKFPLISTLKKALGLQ
readout.kind: Kd (µM)
Enter your answer as a number in µM; do not include the unit.

Ask: State the recorded Kd for this entry: "C[C@H]1O[C@H](O[C@H]2[C@H](O)[C@@H](O)[C@@H](O)[C@H](O)[C@@H]2O)[C@@H](N)C[C@@H]1NC(=N)C(=O)O"
Result: 15.8

====

target: HsCht (Homo sapiens); construct: the catalytic domains of OfChtI from Ostrinia furnacalis (O. furnacalis), human HsCht and acidic mammalian chitinase (AMCase); experiment: Tryptophan fluorescence quenching spectroscopy
Sequence (Q13231 22-388 limits assumed): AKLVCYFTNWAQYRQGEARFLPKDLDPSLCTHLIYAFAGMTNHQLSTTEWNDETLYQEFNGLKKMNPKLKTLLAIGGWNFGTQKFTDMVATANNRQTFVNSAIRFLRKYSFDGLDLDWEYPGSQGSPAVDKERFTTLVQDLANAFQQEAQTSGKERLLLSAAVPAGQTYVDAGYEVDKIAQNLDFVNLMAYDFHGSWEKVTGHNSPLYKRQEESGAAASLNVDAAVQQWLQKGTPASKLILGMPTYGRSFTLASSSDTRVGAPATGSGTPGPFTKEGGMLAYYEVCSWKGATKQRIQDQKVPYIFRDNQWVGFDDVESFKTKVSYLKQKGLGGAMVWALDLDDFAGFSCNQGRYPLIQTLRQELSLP
readout.kind: Kd (nM)
Enter your answer as a number in nM; do not include the unit.

Ask: State the recorded Kd for this entry: "C[C@H]1O[C@H](O[C@H]2[C@H](O)[C@@H](O)[C@@H](O)[C@H](O)[C@@H]2O)[C@@H](N)C[C@@H]1NC(=N)C(=O)O"
Result: 920
